target: FKBP12 (Homo sapiens); assay: FP assay, binding to human FKBPs (Table 1); settings: fluorescence polarization assay
Hi there, I'd appreciate the recorded pKi for every entry that follows.
Give bare numbers, as −log10 of the molar value.

// each molecule listed below needs its pKi
1. C=C[C@H]1CN([C@H](C)C(=O)O)C(=O)[C@@H]2CCC[C@H]1N2S(=O)(=O)c1cc(Cl)cc(Cl)c1 [21c]
2. COC[C@H]1CN(Cc2ccccn2)C(=O)[C@@H]2CCC[C@H]1N2S(=O)(=O)c1cc(Cl)cc(Cl)c1 [24a]
3. C=C[C@H]1CN(CCO)C(=O)[C@@H]2CCC[C@H]1N2S(=O)(=O)c1cc(Cl)cc(Cl)c1 [20a]

[7.32, 9.19, 7.70]

====

target: FKBP12.6 (Homo sapiens); assay: FP assay, binding to human FKBPs (Table 1); details: fluorescence polarization assay
Sequence (P68106 whole entry): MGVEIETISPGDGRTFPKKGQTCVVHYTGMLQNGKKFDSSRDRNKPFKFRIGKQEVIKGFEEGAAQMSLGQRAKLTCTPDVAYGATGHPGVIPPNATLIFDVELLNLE
Outcome Measure: Ki (nM)
Give bare numbers, in nM.

Compound	Unit Label	Ki
C=C[C@H]1CN([C@@H](C)c2ccccn2)C(=O)[C@@H]2CCC[C@H]1N2S(=O)(=O)c1cc(Cl)cc(Cl)c1	nM	0.41
CC[C@H]1CN(Cc2ccccn2)C(=O)[C@@H]2CCC[C@H]1N2S(=O)(=O)c1ccc2ncsc2c1 [26a]	nM	5.2

// each compound listed below needs its Ki
1. CC[C@H]1CN([C@@H](C)c2ccccn2)C(=O)[C@@H]2CCC[C@H]1N2S(=O)(=O)c1ccc2ncsc2c1 [26b]
2. C[C@@H](c1ccccn1)N1C[C@H](CO)[C@H]2CCC[C@@H](C1=O)N2S(=O)(=O)c1ccc2ncsc2c1 [25b]
3. C=C[C@H]1CN(Cc2cn(-c3ccc(OC)cc3)nn2)C(=O)[C@@H]2CCC[C@H]1N2S(=O)(=O)c1cc(Cl)cc(Cl)c1 [19a]
4. C=C[C@H]1CN([C@H](C)c2cn(-c3ccc(OC)cc3)nn2)C(=O)[C@@H]2CCC[C@H]1N2S(=O)(=O)c1cc(Cl)cc(Cl)c1 [19c]

0.6
0.7
16
390

// each compound listed below needs its Ki
1. C=C[C@H]1CN(Cc2ccccn2)C(=O)[C@@H]2CCC[C@H]1N2S(=O)(=O)c1cc(Cl)cc(Cl)c1
2. C[C@@H](c1ccccn1)N1C[C@H](CO)[C@H]2CCC[C@@H](C1=O)N2S(=O)(=O)c1cc(Cl)cc(Cl)c1 [23b]

17
0.31

// each compound listed below needs its Ki
1. O=C1[C@@H]2CCC[C@H]([C@@H](CO)CN1Cc1ccccn1)N2S(=O)(=O)c1ccc2ncsc2c1 [25a]
2. COC[C@H]1CN([C@@H](C)c2ccccn2)C(=O)[C@@H]2CCC[C@H]1N2S(=O)(=O)c1cc(Cl)cc(Cl)c1 [24b]
3. COC[C@H]1CN(Cc2ccccn2)C(=O)[C@@H]2CCC[C@H]1N2S(=O)(=O)c1cc(Cl)cc(Cl)c1 [24a]

[3.8, 0.41, 3.4]

====

Hi there, I'd appreciate the recorded Ki for every entry that follows.
Biological target: FKBP51FK1 (Homo sapiens, UniProt Q13451)
Sequence (Q13451 42-130 limits assumed): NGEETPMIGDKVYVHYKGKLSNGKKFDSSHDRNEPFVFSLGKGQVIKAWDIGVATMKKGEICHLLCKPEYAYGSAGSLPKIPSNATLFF
Numbers only, in nM.

Sample records with Ki:
Compound	Unit Label	Ki
C=C[C@H]1CN(Cc2cn(CCOCC(=O)Nc3cccc4c3C(=O)N(C3CCC(=O)NC3=O)C4=O)nn2)C(=O)[C@@H]2CCC[C@H]1N2S(=O)(=O)c1cc(Cl)cc(Cl)c1 (stereo partly drawn) [MTQ503]	nM	8
C=C[C@H]1CN([C@@H](C)c2cn(CCOCCOCCOCC(=O)Nc3cccc4c3C(=O)N(C3CCC(=O)NC3=O)C4=O)nn2)C(=O)[C@@H]2CCC[C@H]1N2S(=O)(=O)c1cc(Cl)cc(Cl)c1 (stereo partly drawn) [MTQ515]	nM	3.2

// each compound listed below needs its Ki
1. C=C[C@H]1CN(Cc2cn(CCOCCOCC(=O)Nc3cccc4c3C(=O)N(C3CCC(=O)NC3=O)C4=O)nn2)C(=O)[C@@H]2CCC[C@H]1N2S(=O)(=O)c1cc(Cl)cc(Cl)c1 (stereo partly drawn) [MTQ504]
2. C=C[C@H]1CN([C@@H](C)c2cn(CCOCC(=O)Nc3cccc4c3C(=O)N(C3CCC(=O)NC3=O)C4=O)nn2)C(=O)[C@@H]2CCC[C@H]1N2S(=O)(=O)c1cc(Cl)cc(Cl)c1 (stereo partly drawn) [MTQ513]

[25, 2.3]

// each compound listed below needs its Ki
1. C=C[C@H]1CN([C@@H](C)c2cn(CCOCCOCCOCCOCCOCC(=O)Nc3cccc4c3C(=O)N(C3CCC(=O)NC3=O)C4=O)nn2)C(=O)[C@@H]2CCC[C@H]1N2S(=O)(=O)c1cc(Cl)cc(Cl)c1 (stereo partly drawn) [MTQ517]
2. C=C[C@H]1CN([C@@H](C)c2cn(CCOCCOCCOCCOCC(=O)Nc3cccc4c3C(=O)N(C3CCC(=O)NC3=O)C4=O)nn2)C(=O)[C@@H]2CCC[C@H]1N2S(=O)(=O)c1cc(Cl)cc(Cl)c1 (stereo partly drawn) [MTQ516]

2.1
4.2

====

molecular target: FKBP12 (Homo sapiens, UniProt P62942); assay: FP assay, binding to human FKBPs (Table 1); settings: fluorescence polarization assay
Sequence (P62942 whole entry): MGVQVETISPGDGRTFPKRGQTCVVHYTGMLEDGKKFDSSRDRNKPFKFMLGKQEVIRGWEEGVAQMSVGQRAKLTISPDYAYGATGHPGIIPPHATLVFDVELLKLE
pKi: −log10 of the molar value.
Tag: t if measured pKi is not below 8, f if it is.

These recorded examples may help you get a feel for the data.
Compound	Category
COC[C@H]1CN([C@@H](C)c2ccccn2)C(=O)[C@@H]2CCC[C@H]1N2S(=O)(=O)c1cc(Cl)cc(Cl)c1 [24b]	t
C=C[C@H]1CN([C@H](C)COCc2ccccc2)C(=O)[C@@H]2CCC[C@H]1N2S(=O)(=O)c1cc(Cl)cc(Cl)c1 [15b]	f
C=C[C@H]1CN([C@@H](C)COCc2ccccc2)C(=O)[C@@H]2CCC[C@H]1N2S(=O)(=O)c1ccc2ncsc2c1 [16a]	f
C=C[C@H]1CN([C@@H](C)CO)C(=O)[C@@H]2CCC[C@H]1N2S(=O)(=O)c1cc(Cl)cc(Cl)c1 [20b]	t
C=C[C@H]1CN([C@@H](C)c2cn(-c3ccc(OC)cc3)nn2)C(=O)[C@@H]2CCC[C@H]1N2S(=O)(=O)c1cc(Cl)cc(Cl)c1 [19b]	t
C=C[C@H]1CN([C@@H](C)c2ccccn2)C(=O)[C@@H]2CCC[C@H]1N2S(=O)(=O)c1ccc2ncsc2c1	t
C=C[C@H]1CN([C@@H](C)COCc2ccccc2)C(=O)[C@@H]2CCC[C@H]1N2S(=O)(=O)c1cc(Cl)cc(Cl)c1 [15a]	f
C=C[C@H]1CN(CCOC)C(=O)[C@@H]2CCC[C@H]1N2S(=O)(=O)c1cc(Cl)cc(Cl)c1 [22a]	f

Is the recorded value of pKi equal to or greater than 8 for this compound? C=C[C@H]1CN([C@H](C)CO)C(=O)[C@@H]2CCC[C@H]1N2S(=O)(=O)c1cc(Cl)cc(Cl)c1 [20c]
f

Is the recorded value of pKi equal to or greater than 8 for this compound? `C=C[C@H]1CN([C@H](C)c2ccccn2)C(=O)[C@@H]2CCC[C@H]1N2S(=O)(=O)c1cc(Cl)cc(Cl)c1`
f

Is the recorded value of pKi equal to or greater than 8 for this compound? CC[C@H]1CN([C@@H](C)c2ccccn2)C(=O)[C@@H]2CCC[C@H]1N2S(=O)(=O)c1ccc2ncsc2c1 [26b]
t

====

Hi there, I'd appreciate the recorded pKi for every entry that follows.
Molecular target: FKBP51 (Homo sapiens, UniProt Q13451)
Sequence (Q13451 1-457): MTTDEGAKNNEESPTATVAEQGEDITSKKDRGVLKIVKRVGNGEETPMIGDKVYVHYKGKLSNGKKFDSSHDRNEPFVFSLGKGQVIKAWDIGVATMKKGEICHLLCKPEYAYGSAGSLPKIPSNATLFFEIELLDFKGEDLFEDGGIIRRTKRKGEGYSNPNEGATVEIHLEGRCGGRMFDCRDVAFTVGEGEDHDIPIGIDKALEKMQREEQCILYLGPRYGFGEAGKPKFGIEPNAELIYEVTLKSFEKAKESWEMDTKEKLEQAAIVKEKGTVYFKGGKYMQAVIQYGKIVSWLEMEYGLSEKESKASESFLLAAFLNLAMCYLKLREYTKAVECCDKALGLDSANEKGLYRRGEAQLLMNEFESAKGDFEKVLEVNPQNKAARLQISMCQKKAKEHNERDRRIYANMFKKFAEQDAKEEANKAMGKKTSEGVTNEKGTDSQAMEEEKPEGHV
Answers are plain numbers, as −log10 of the molar value.

Sample records with pKi:
Compound	Recorded Result
CC[C@H]1CN([C@@H](C)c2ccccn2)C(=O)[C@@H]2CCC[C@H]1N2S(=O)(=O)c1ccc2ncsc2c1 [26b]	7.57
C=C[C@H]1CN([C@@H](C)COCc2ccccc2)C(=O)[C@@H]2CCC[C@H]1N2S(=O)(=O)c1ccc2ncsc2c1 [16a]	6.58
C=C[C@H]1CN([C@@H](C)C(=O)O)C(=O)[C@@H]2CCC[C@H]1N2S(=O)(=O)c1cc(Cl)cc(Cl)c1 [21b]	7.66
C=C[C@H]1CN(CCOC)C(=O)[C@@H]2CCC[C@H]1N2S(=O)(=O)c1cc(Cl)cc(Cl)c1 [22a]	6.28
C=C[C@H]1CN(Cc2ccccn2)C(=O)[C@@H]2CCC[C@H]1N2S(=O)(=O)c1ccc2ncsc2c1 [7a]	6.53

// each compound listed below needs its pKi
1. C=C[C@H]1CN([C@H](C)c2ccccn2)C(=O)[C@@H]2CCC[C@H]1N2S(=O)(=O)c1ccc2ncsc2c1 [7e]
2. C=C[C@H]1CN([C@@H](C)COCc2ccccc2)C(=O)[C@@H]2CCC[C@H]1N2S(=O)(=O)c1cc(Cl)cc(Cl)c1 [15a]
3. C=C[C@H]1CN([C@@H](C)COC)C(=O)[C@@H]2CCC[C@H]1N2S(=O)(=O)c1cc(Cl)cc(Cl)c1 [22b]
4. C=C[C@H]1CN([C@@H](C)CO)C(=O)[C@@H]2CCC[C@H]1N2S(=O)(=O)c1ccc2ncsc2c1 [17a]
5. C[C@@H](c1ccccn1)N1C[C@H](CO)[C@H]2CCC[C@@H](C1=O)N2S(=O)(=O)c1cc(Cl)cc(Cl)c1 [23b]
6. CC[C@H]1CN(Cc2ccccn2)C(=O)[C@@H]2CCC[C@H]1N2S(=O)(=O)c1ccc2ncsc2c1 [26a]

1: 5.34; 2: 5.97; 3: 6.69; 4: 6.96; 5: 8.72; 6: 6.39
